target: A2 receptors (Rattus norvegicus, UniProt P30543); construct: Rat PC12 Membranes; endogenous in cells; host or cells: PC12; assay: antagonism of NECA-stimulated adenylate cyclase in rat PC12 membranes (B); type: biochemical; details: (B) Rat PC12 Membranes; A2 Effects
Sequence (P30543 whole entry): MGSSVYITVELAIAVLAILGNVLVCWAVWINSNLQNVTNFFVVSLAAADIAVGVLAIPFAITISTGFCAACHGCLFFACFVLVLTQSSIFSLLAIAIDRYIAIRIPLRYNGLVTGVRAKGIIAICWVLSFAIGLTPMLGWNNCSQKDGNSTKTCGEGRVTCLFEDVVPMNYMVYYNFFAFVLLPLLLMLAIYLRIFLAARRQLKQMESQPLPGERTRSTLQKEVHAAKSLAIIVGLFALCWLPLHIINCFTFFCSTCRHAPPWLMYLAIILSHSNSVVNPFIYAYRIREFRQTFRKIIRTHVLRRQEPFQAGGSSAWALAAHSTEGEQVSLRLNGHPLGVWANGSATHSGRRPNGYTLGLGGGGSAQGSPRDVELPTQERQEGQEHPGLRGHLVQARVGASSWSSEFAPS
assay.endpoint: Kb (µM)
Give your result in µM as a bare value.

Inquiry: Recorded Kb for COc1cc(CCNc2ncnc3c2ncn3C)cc(OC)c1OC [compound 1002] with A2 receptors (Rattus norvegicus, UniProt P30543), please?
Reply text: 40

Inquiry: Recorded Kb for Cn1cnc2c(NCCc3cccnc3)ncnc21 [N^6-2-(3-Pyridylethyl)-9-MA] with A2 receptors (Rattus norvegicus, UniProt P30543), please?
Reply text: 117

Inquiry: Recorded Kb for Cn1cnc2c(Nc3ccccc3F)ncnc21 [N^6-2-Fluorophenyl-9-MA, N^6-2-Fluorophenyl-9-MA] with A2 receptors (Rattus norvegicus, UniProt P30543), please?
Reply text: 29

Inquiry: Recorded Kb for Cn1cnc2c(NCCc3ccsc3)ncnc21 [N^6-2-(3-Thienylethyl)-9-MA] with A2 receptors (Rattus norvegicus, UniProt P30543), please?
Reply text: 25

Inquiry: Recorded Kb for Cn1cnc2c(NC3CCCC3)ncnc21 [compound 0840, N^6 -Cyclopentyl-9-Methyl Adenine] with A2 receptors (Rattus norvegicus, UniProt P30543), please?
Reply text: 25

###

target: A2 receptors (Homo sapiens); construct: Human Platelet Membranes; from tissue; host or cells: human platelets (membranes); assay: antagonism of NECA-stimulated adenylate cyclase in human platelet membranes (A); format: biochemical; details: (A) Human Platelet Membranes; A2 Effects
Sequence (P29274 whole entry): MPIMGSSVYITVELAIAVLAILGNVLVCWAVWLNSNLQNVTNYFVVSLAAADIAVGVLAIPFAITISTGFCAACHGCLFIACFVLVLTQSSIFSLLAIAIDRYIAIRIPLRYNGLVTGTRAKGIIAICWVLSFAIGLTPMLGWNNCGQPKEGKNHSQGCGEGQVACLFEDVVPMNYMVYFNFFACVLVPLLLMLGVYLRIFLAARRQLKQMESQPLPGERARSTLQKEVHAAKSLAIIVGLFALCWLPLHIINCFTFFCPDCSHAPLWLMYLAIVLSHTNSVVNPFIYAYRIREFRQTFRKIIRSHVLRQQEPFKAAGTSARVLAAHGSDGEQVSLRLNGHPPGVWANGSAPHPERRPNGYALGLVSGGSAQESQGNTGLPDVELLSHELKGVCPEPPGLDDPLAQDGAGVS
Provide the recorded Kb for the entries that follow.

Inquiry: Quick one: Kb of Cn1cnc2c(NC3CCCC3)ncnc21 [compound 0840, N^6 -Cyclopentyl-9-Methyl Adenine] ?
Reply text: 4.9 µM

Inquiry: Quick one: Kb of Cn1cnc2c(NCc3ccccc3)ncnc21 [N^6-2-Benzyl-9-MA, N^6 -Benzyl-9-MA] ?
Reply text: 57 µM

Inquiry: Quick one: Kb of COc1cc(CCNc2ncnc3c2ncn3C)cc(OC)c1OC [compound 1002] ?
Reply text: 23 µM

Inquiry: Quick one: Kb of Cn1cnc2c(NCCc3ccccc3)ncnc21 [compound 0990, N^6-2-(phenethyl)9-MA] ?
Reply text: 170 µM

###

biological target: UniProt P25099; assay: inhibition of binding of [3H]-phenylisopropyladenosine in rat brain membranes (D); parameters: Rat Brain Membranes; from tissue; host or cells: rat brain (membranes); details: (D) Rat Brain Membranes; A1 Effects; read-out: Ki vs [^3 H] PI (Binding)
Sequence (P25099 whole entry): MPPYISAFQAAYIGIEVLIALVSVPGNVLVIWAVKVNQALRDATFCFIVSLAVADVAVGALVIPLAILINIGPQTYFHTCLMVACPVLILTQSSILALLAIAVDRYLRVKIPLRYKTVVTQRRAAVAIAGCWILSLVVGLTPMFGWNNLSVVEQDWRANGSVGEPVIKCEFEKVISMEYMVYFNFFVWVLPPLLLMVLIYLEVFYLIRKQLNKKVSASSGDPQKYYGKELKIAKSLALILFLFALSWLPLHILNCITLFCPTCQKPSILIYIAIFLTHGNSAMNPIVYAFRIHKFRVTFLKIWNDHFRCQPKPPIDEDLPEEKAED
assay.endpoint: log10(Ki) (log10 of the value in µM)
Values reflect log10 of reported Ki (µM).

Inquiry: Quick one: log10(Ki) of Cn1cnc2c(NC3CCC3)ncnc21 [N^6-cyclobutyl-0-MA, N^6 -Cyclobutyl-9-Methyl Adenine] ?
Reply text: 0.08

Inquiry: Quick one: log10(Ki) of CCC(CC)Nc1ncnc2c1ncn2C [N^6-3-Pentyl-9-MA, N^6-3-Pentyl-9-Methyladenine] ?
Reply text: 0.52

Inquiry: Quick one: log10(Ki) of Cn1cnc2c(NCCc3cccnc3)ncnc21 [N^6-2-(3-Pyridylethyl)-9-MA] ?
Reply text: 1.61

Inquiry: Quick one: log10(Ki) of Cn1cnc2c(Nc3ccccc3F)ncnc21 [N^6-2-Fluorophenyl-9-MA, N^6-2-Fluorophenyl-9-MA] ?
Reply text: 0.93

Inquiry: Quick one: log10(Ki) of Cn1cnc2c(NCc3ccccc3)ncnc21 [N^6-2-Benzyl-9-MA, N^6 -Benzyl-9-MA] ?
Reply text: 1.23

Inquiry: Quick one: log10(Ki) of Cn1cnc2c(Nc3ccccc3)ncnc21 [N^6 Phenyl-9-MA, N^6 -Phenyl-9-MA] ?
Reply text: 1.40

Inquiry: Quick one: log10(Ki) of Cn1cnc2c(NCCc3ccsc3)ncnc21 [N^6-2-(3-Thienylethyl)-9-MA] ?
Reply text: 1.30
